# TARGET_DESC: T1, lecithin:cholesterol acyltransferase (LCAT), purified from human plasma (human, UniProt P04180 25-440)
# T1 sequence (looked up): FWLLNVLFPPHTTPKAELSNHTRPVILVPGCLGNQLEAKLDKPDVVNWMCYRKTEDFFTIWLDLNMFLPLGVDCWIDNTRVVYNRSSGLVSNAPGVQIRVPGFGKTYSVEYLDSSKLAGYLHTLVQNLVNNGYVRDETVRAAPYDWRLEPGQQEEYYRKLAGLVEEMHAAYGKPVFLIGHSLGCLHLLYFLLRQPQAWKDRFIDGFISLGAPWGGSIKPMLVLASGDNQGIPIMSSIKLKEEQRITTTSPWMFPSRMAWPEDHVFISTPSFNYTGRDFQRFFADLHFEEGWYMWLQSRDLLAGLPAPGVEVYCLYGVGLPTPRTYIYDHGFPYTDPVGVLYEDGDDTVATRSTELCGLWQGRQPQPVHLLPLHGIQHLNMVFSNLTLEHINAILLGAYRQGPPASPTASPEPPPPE
# METHOD_DESCRIPTION: cell-based or functional assay
VALUE_KIND: ACTIVITY (%) LCAT

Completed entries (count: 2):
> print(dat)
                             binder  recorded.value
1  EWLKAEYEKVEEKLKELF [peptide 245]               4
2  EWLKAEYEKVLEKLKELF [peptide 246]               4

[A] DWFKAFYDKFFEKFKEFF [peptide 243]
[B] DWLKAFYDKVFEKFKEFF [peptide 241]
In the pair A and B , the larger recorded ACTIVITY (%) LCAT belongs to which? Field: selected label. Fill in the label of the entry you choose.
B
(B: 8%, A: 5%)
